The measurements presented in this section are drawn from paper PMC10397247.

This section presents binders with their documented interaction score values.
- TEST_SYSTEM: T1, P1A-bN
- T1 chain: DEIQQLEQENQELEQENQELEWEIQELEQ
- METHOD_NOTES: two-hybrid library CCNG1;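 note: natural log of median RNA to DNA barcode read ratio; higher means stronger binding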
MEASUREMENT_LABEL: interaction score

DEIQQLKQKIQELKQENQELEWKNQELEQ [4H855-bN] :: -0.584
DKNQQLKQENQELEQKIQELKWKIQELKQ [P10A-bN] :: -0.0109
DKNQQLKQKIQELKQKIQELKWENQELEQ [P12A-bN] :: -1.71
DENQQLEQEIQELEQEIQELEWKNQELKQ [P11A-bN] :: -0.501
